This section presents molecules with their documented pIC50 values.
# target: full-length human PDE4D5 isozyme (Homo sapiens, UniProt Q08499)
# Construct: The full-length human PDE4D5 isozyme; His6 (N); TEV cleavage site (N); made in house; host or cells: baculovirus infected insect cells (unpurified lysate)
# Sequence (Q08499 1-745 isoform Q08499-6): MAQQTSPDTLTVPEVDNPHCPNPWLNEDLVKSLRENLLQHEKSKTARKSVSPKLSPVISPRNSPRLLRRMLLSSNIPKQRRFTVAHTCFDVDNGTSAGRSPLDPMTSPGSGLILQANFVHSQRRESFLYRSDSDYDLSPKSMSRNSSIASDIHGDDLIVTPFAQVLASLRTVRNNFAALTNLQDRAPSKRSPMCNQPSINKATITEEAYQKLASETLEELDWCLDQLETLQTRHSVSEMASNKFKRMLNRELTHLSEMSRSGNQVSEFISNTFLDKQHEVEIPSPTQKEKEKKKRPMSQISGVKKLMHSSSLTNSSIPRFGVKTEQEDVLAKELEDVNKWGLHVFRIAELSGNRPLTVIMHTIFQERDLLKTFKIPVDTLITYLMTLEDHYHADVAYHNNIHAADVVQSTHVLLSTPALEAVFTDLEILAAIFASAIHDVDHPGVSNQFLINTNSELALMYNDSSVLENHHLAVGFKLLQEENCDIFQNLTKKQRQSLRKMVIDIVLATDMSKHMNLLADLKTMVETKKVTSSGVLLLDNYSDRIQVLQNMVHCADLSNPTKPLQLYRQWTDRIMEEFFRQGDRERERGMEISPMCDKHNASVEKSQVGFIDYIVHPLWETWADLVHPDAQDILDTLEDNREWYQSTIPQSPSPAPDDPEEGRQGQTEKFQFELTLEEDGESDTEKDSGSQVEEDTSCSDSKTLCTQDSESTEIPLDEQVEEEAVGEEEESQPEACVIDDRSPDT
# experiment: PDE4 IC50 determination by Scintillation Proximity Assay, PDE4D5
# Format: biochemical
# cond: Table 1B, Formula I compounds; read-out: IC50 PDE4D5
pIC50: −log10 of the molar value.
test readout: pIC50

1. COc1ccc(C(=O)c2sc(Nc3cccc(C#N)c3)c(C#N)c2N)c(OC)c1 ... > 5.00
2. CSc1cccc(Nc2sc(C(=O)c3ccccc3Cl)c(N)c2C#N)c1 ... > 5.00
3. CC(C)CNc1sc(C(=O)c2cc(-c3ccc(N)cc3)no2)c(N)c1C(N)=O ... > 5.00
4. CSc1cccc(Nc2sc(C(=O)c3cc(-c4ccccc4)no3)c(N)c2C#N)c1 ... > 5.00
5. CCc1ccccc1Nc1sc(C(=O)c2ccc(-c3ccccn3)s2)c(N)c1C#N ... < 5.00
6. N#Cc1c(NC2CCCO2)sc(C(=O)c2cc(-c3ccccc3)no2)c1N (stereo not shown) ... > 5.00
7. N#Cc1c(NCC2CC2)sc(C(=O)c2cc(-c3ccccc3)no2)c1N ... < 5.00
8. COc1ccc(Nc2sc(C(=O)c3ccccc3)c(N)c2C#N)cc1 ... > 5.00
9. CCNC(=O)c1cc(C(=O)c2sc(NC3CCCC3)c(C#N)c2N)on1 ... < 5.00
10. CCC(C)Nc1sc(C(=O)c2cc(-c3ccc(Cl)c(Cl)c3)no2)c(N)c1C#N (stereo not shown) ... < 5.00
11. COc1ccc(Nc2sc(C(=O)c3c(-c4ccccc4)noc3C)c(N)c2C#N)cc1 ... > 5.00
12. CCOC(=O)c1c(NC2CCCC2)sc(C(=O)c2ccc(OC)cc2)c1N ... > 5.00
13. N#Cc1c(NC2CCCCC2)sc(C(=O)c2cc(-c3ccccc3)no2)c1N ... < 5.00
14. CCc1ccccc1Nc1sc(C(=O)c2cc(OC)ccc2OC)c(N)c1C#N ... > 5.00
15. N#Cc1c(Nc2ccc(Cl)cc2)sc(C(=O)c2ccc(Cl)cc2Cl)c1N ... > 5.00
16. N#Cc1c(Nc2ccccc2)sc(C(=O)c2ccccc2)c1N ... < 5.00
17. NC(=O)c1c(N)sc(C(=O)c2cc(-c3ccccc3)no2)c1N ... < 5.00
18. CC(C)CNc1sc(C(=O)c2ccc(Oc3ccccc3)cc2)c(N)c1C#N ... > 5.00
19. CSc1cccc(Nc2sc(C(=O)c3ccccc3)c(N)c2C#N)c1 ... > 5.00
20. Cc1ccc(C(=O)c2sc(Nc3ccccc3)c(C#N)c2N)cc1 ... > 5.00
21. N#Cc1c(NC2CCCC2)sc(C(=O)c2cc(-c3c(Cl)cccc3Cl)no2)c1N ... > 5.00
22. CCOC(=O)c1c(Nc2ccccc2F)sc(C(=O)c2ccc(Cl)cc2)c1N ... > 5.00
23. CCC(C)Nc1sc(C(=O)c2cc(-c3ccccc3)no2)c(N)c1C(N)=O (stereo not shown) ... > 5.00
24. N#Cc1c(Nc2ccccc2)sc(C(=O)c2ccc(Cl)cc2)c1N ... > 5.00
25. CC(C)Nc1sc(C(=O)c2cc(-c3ccc(Cl)c(Cl)c3)no2)c(N)c1C#N ... < 5.00
26. CC(C)(C)Nc1sc(C(=O)c2cc(-c3ccccc3)no2)c(N)c1C#N ... > 5.00
27. COc1ccc(Nc2sc(C(=O)c3cnn(-c4ccccc4)c3C)c(N)c2C#N)cc1 ... > 5.00
28. COc1cccc(C(=O)c2sc(Nc3ccccc3)c(C#N)c2N)c1 ... > 5.00
29. CCOC(=O)c1cc(C(=O)c2sc(NC3CCCC3)c(C#N)c2N)on1 ... > 5.00
30. CCc1c(NC2CCCC2)sc(C(=O)c2cc(-c3ccccc3)no2)c1N ... < 5.00
31. CCOC(=O)c1c(Nc2ccccc2OC)sc(C(=O)c2ccccc2)c1N ... > 5.00
32. N#Cc1c(Nc2ccc(Oc3ccccc3)cc2)sc(C(=O)c2cc(-c3ccccc3)no2)c1N ... < 5.00
33. CC(C)CNc1sc(C(=O)c2cc(-c3ccccc3)no2)c(N)c1C#N ... > 5.00
34. CCOC(=O)c1c(NC2CCCC2)sc(C(=O)c2cc(-c3ccccc3)no2)c1N ... < 5.00
